Each entry below carries its reported IC50.
molecular target: BIKE (amino acids S38-E345) (K320A, K321A) (Homo sapiens, UniProt Q9NSY1, K320A/K321A); construct: against BIKE (amino acids S38-E345) (K320A, K321A); 6His (N, cleaved yes); assay: BIKE pSENs assay; format: biochemical; conditions: class symbols; read-out: BIKE pSENs: IC50
Sequence (Q9NSY1 38-345 K320A/K321A): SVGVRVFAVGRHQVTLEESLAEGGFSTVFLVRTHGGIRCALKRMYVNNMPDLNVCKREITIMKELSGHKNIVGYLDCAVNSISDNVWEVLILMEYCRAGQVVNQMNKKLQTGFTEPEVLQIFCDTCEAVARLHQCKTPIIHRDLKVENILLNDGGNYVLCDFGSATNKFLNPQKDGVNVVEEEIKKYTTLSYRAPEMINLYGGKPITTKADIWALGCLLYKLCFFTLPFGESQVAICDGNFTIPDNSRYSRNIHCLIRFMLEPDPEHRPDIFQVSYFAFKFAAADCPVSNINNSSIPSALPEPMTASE

Worked examples, 4 compounds total:
[2H]C([2H])([2H])N1C[C@@H](OC(=O)N2CCN(c3nc4c(-c5cc(OC)cnc5OC5CC5)cnn4cc3F)CC2)CC1=O    1 to 50 nM
Clc1cnn2ccc(N3CCNCC3)nc12    > 1500 nM
CC(C)(C)OC(=O)N1CCC(N2C[C@@H](OC(=O)N3CCN(c4ccn5ncc(-c6cccnc6OC6CC6)c5n4)CC3)CC2=O)CC1    501 to 1500 nM
O=C(O[C@H]1CO[C@H]2OCC[C@H]21)N1CCN(c2ccn3ncc(-c4cccnc4OC4CC4)c3n2)CC1    151 to 500 nM

Turning now to a further compound:
# query: IC50 of entry CC(C)Oc1ncccc1-c1cnn2ccc(N3CCN(C(=O)O[C@]4(C)CCNC4)CC3)nc12
51 to 150 nM
